# experimentSummary: Tissue distribution of selenium-75-labelled sterols in rats, sixth day post-injection
# Assay type: in vivo, rats of the C.F.Y. strain
# testContext: male and female rats, tail vein, dose: 1, 7: 40 μCi, 6: 50 μCi, 3: 30 μCi, 4: 1.5 μCi, 5: 10 μCi, 8: 6.3 μCi
Reported % dose kg./g. in Kidneys values follow for various compounds

# compound, % dose kg./g. in Kidneys [% dose kg./g.]
data = [
    ("C[75Se]C[C@@H]1C[C@@H]2[C@H](CC[C@]3(C)[C@@H]([C@H](C)CCCC(C)C)CC[C@@H]23)C2=C1C[C@@H](O)CC2", 0.116),
    ("CC(C)CCC[C@@H](C)[C@H]1CC[C@H]2[C@@H]3C[C@@H](C[75Se](C)=O)C4=C(CC[C@H](O)C4)[C@H]3CC[C@]12C (stereo partly drawn)", 0.087),
    ("CCCC[75Se]C[C@@H]1C[C@@H]2[C@H](CC[C@]3(C)[C@@H]([C@H](C)CCCC(C)C)CC[C@@H]23)C2=C1C[C@@H](O)CC2", 0.052),
]
